procedure summary: In vitro inhibition of linoleic acid lipid peroxidation (AAPH)
study conditions: 100 μM; anti-lipid peroxidation
Given measured AAPH Inh. at 100 μΜ, output Y if it is greater than or equal to 90% and N if not.

- compound: "Cc1c(C)c2c(c(C)c1O)CCC(C)(C(=O)O)O2 (centres unmarked) [Trolox, reference compound]"
  class assignment: "Y"

# ---- query compound ----
Enquiry: For this compound, is measured AAPH Inh. at 100 μΜ 90% or higher? "CC(=O)c1ccc(NC(=O)COC(=O)/C(=C/c2cccc3ccccc23)c2ccccc2)cc1"
Return: N

====

Parameter 'readout' = IC50; parameter 'system' = UniProt:P08170.
Sequence (P08170 whole entry): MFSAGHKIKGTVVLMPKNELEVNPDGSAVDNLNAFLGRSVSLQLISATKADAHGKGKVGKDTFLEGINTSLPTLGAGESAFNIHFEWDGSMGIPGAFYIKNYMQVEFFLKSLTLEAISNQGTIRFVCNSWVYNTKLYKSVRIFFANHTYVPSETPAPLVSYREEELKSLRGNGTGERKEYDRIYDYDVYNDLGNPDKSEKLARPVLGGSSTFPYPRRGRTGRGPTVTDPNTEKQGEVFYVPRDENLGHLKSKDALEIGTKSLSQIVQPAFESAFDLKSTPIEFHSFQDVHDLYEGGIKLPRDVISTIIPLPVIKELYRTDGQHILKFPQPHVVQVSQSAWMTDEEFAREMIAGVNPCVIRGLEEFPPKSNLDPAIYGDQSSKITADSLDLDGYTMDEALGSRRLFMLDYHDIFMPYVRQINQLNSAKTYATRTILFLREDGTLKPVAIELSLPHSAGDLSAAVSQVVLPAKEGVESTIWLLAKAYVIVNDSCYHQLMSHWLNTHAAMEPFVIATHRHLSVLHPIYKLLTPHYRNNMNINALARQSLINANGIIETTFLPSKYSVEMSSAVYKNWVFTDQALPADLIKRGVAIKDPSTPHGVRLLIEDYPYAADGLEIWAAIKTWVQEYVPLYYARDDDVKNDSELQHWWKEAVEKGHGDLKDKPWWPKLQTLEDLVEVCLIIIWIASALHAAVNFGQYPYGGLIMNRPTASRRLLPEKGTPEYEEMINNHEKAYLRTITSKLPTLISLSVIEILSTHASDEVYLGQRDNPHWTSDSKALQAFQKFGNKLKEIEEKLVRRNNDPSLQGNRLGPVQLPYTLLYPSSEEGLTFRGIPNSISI
Write down the numeric answer in µM and omit the unit.

Examples with their reported IC50 follow.
- compound: "C/C(=N\\O)c1ccc(NC(=O)COC(=O)/C(=C/c2ccccc2)c2ccccc2)cc1 [Compound 6g]"
  test system: "UniProt:P08170"
  reported measurement: 44
- compound: "C/C(=N\\O)c1ccc(NC(=O)COC(=O)/C(=C/c2cccc3ccccc23)c2ccccc2)cc1 [Compound 6h]"
  test system: "UniProt:P08170"
  reported measurement: 62.5
- compound: "CC(=O)c1ccc(NC(=O)COC(=O)/C=C/c2cccc3ccccc23)cc1 [Compound 5b]"
  test system: "UniProt:P08170"
  reported measurement: 57.5

Enquiry: Find IC50 (UniProt:P08170) for the entry C/C(=N\O)c1ccc(NC(=O)COC(=O)/C(=C/c2cccs2)c2ccccc2)cc1 [Compound 6i]
Return: 60

Enquiry: Provide value of IC50 for this record tested with UniProt:P08170: O=C(OCc1c(-c2ccccc2)no[n+]1[O-])/C(=C/c1ccccc1)c1ccccc1 [Compound 9g]
Return: 55.5

Enquiry: Find the measured IC50: item C/C(=N\O)c1ccc(NC(=O)COC(=O)/C=C/c2cc3ccccc3o2)cc1 [Compound 6f] , target or system UniProt:P08170.
Return: 61

Enquiry: For UniProt:P08170, provide IC50 of O=C(/C=C/c1cc2ccccc2o1)OCc1c(-c2ccccc2)no[n+]1[O-] [Compound 9f] please.
Return: 70

Enquiry: Query for UniProt:P08170: what IC50 does the record show for O=C(C=Cc1ccccc1)OCc1c(-c2ccccc2)no[n+]1[O-] [Compound 9a] ?
Return: 3.5

Enquiry: Any idea what IC50 came out for C/C(=N\O)c1ccc(NC(=O)COC(=O)/C=C/c2cccs2)cc1 [Compound 6c] on UniProt:P08170?
Return: 10

These entries and their values trace back to paper PMC12693419.
